In this section we review reported IC50 values for a set of molecules.
Tested System: OR1/OR7 (Anopheles gambiae, UniProt Q7QCC7+Q8WTE7)
Construct: Full-length cDNAs for mosquito (Anopheles gambiae) odorant receptor (OR1, OR2, OR7, OR8, OR28); expressed in transfected cells
Sequence (Q8WTE7 whole entry): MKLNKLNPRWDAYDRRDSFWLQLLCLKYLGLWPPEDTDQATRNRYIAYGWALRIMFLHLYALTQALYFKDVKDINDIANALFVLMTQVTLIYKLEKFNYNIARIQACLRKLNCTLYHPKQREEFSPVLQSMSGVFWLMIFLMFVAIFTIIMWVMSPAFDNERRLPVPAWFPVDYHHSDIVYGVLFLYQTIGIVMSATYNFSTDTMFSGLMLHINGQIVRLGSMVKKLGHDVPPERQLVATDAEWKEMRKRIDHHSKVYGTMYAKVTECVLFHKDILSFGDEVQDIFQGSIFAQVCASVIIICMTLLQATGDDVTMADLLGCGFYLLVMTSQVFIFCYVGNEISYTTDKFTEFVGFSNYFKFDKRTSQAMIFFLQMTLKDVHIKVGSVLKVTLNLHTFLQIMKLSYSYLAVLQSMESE
Sequence (Q7QCC7 whole entry): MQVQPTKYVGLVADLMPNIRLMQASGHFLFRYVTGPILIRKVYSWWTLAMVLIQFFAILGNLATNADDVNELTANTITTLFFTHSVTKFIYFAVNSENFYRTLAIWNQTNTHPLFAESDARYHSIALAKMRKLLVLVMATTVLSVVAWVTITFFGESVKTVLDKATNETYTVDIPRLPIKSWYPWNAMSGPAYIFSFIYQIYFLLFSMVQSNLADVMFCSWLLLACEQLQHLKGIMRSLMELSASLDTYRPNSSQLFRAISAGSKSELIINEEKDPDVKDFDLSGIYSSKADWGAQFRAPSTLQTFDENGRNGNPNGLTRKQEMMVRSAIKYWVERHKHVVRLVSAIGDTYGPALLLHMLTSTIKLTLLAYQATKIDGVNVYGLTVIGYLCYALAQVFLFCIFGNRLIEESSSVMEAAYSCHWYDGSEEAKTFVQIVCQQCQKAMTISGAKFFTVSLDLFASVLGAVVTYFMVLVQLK
Measurement Notes: Ca2+-imaging of stable HEK293T cell line OR1/OR7
Format: cell-based
Setup Conditions: ligand 4-methyl phenol 30 μM; read-out: IC50 OR1 OR7
Readout Name: IC50

INSERT INTO assay_data (mol_smiles, measured) VALUES
  ('O=C(c1nccn1Cc1c(F)cccc1Cl)N(CC1CCCC1)C1CC1', '< 2000 nM'),
  ('CCNc1nc(NCC)nc(SC)n1', '2000 to 20000 nM'),
  ('CN(Cc1nccn1Cc1c(F)cccc1Cl)C(=O)C1CCCC1', '< 2000 nM'),
  ('Cc1nc(NC(C)C)nc(NC(C)C)n1', '2000 to 20000 nM'),
  ('CC(C)Nc1nc(NC(C)C)nc(C(F)(F)F)n1', '< 2000 nM');

###

Quick reference: inhibition at 4 µM of the listed items.
Tested System: Or47a/Or83b (Drosophila melanogaster, UniProt P81921+Q9VNB5)
Construct: Full-length cDNAs for mosquito (Anopheles gambiae) odorant receptor (OR1, OR2, OR7, OR8, OR28), and fly (Drosophila melanogaster) odorant receptor (Or47a, Or83b); expressed in transfected cells
Sequence (P81921 whole entry): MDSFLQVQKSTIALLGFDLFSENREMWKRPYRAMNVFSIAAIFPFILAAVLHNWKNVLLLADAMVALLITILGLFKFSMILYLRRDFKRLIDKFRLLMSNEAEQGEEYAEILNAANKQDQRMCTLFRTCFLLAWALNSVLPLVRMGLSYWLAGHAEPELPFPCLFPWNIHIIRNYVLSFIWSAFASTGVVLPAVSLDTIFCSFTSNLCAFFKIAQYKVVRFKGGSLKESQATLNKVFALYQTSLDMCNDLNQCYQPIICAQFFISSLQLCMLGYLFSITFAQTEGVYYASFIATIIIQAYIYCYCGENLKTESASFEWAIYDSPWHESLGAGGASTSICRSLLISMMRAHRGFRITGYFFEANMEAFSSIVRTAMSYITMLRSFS
Sequence (Q9VNB5 whole entry): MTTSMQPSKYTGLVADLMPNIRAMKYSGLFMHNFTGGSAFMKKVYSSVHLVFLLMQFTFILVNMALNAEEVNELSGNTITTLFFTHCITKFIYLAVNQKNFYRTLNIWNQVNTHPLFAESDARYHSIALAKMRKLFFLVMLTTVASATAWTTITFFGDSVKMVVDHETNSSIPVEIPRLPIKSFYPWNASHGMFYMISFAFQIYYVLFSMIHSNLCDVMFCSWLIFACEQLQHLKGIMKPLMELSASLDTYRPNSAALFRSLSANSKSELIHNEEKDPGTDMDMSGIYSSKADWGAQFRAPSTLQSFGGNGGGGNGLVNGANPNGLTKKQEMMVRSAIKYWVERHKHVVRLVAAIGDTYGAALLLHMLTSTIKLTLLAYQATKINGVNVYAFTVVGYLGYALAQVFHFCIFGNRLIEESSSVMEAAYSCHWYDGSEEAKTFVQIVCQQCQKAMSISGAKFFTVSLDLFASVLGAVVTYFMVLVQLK
Measurement Notes: Ca2+-imaging of stable Flip-In T-Rex cell line Or47a/Or83b
Type: cell-based
Setup Conditions: compound applied at 4 μM; read-out: Percent Inhibition OR47a OR83b
Readout Name: inhibition at 4 µM

INSERT INTO assay_data (compound, tested_system, measured) VALUES
  ('Cc1ccc(-n2nc(C)c(CCC(=O)N3CCc4ccccc4C3)c2C)cc1Cl', 'Or47a/Or83b (Drosophila melanogaster, UniProt P81921+Q9VNB5)', '51 to 74%'),
  ('COc1nc(OCC#N)nc(N2CCCCC2)n1', 'Or47a/Or83b (Drosophila melanogaster, UniProt P81921+Q9VNB5)', '51 to 74%'),
  ('COCCCN(CC(=O)N1CCc2sccc2C1COc1cccc(OC)c1)C(=O)c1ccccc1OC (stereo not drawn)', 'Or47a/Or83b (Drosophila melanogaster, UniProt P81921+Q9VNB5)', '51 to 74%'),
  ('CC(C)CN(Cc1nccn1Cc1ccc(Cl)cc1Cl)C(=O)c1ccccc1F', 'Or47a/Or83b (Drosophila melanogaster, UniProt P81921+Q9VNB5)', '26 to 50%'),
  ('Cc1cc(C)c(Cn2ccnc2CN(C(=O)c2ccccc2F)C(C)C)c(C)c1', 'Or47a/Or83b (Drosophila melanogaster, UniProt P81921+Q9VNB5)', '51 to 74%'),
  ('Cc1nn(-c2ccc(Cl)cc2)c(C)c1C(=O)NCc1ccccn1', 'Or47a/Or83b (Drosophila melanogaster, UniProt P81921+Q9VNB5)', '26 to 50%'),
  ('O=C(NCCC(=O)N1CCOC(COCc2ccc(F)cc2Cl)C1)OCc1ccccc1 (stereo not drawn)', 'Or47a/Or83b (Drosophila melanogaster, UniProt P81921+Q9VNB5)', '26 to 50%'),
  ('CCNc1nc(NC(C)C)nc(N(C#N)Cc2ccccc2)n1', 'Or47a/Or83b (Drosophila melanogaster, UniProt P81921+Q9VNB5)', '51 to 74%'),
  ('c1ccc(CNc2nc(NCc3ccco3)nc(N3CCOCC3)n2)cc1', 'Or47a/Or83b (Drosophila melanogaster, UniProt P81921+Q9VNB5)', '51 to 74%'),
  ('COc1ccc(OCC(=O)N2CCOC(Cc3ccccc3)C2)cc1 (stereo not drawn)', 'Or47a/Or83b (Drosophila melanogaster, UniProt P81921+Q9VNB5)', '26 to 50%'),
  ('Cc1cccc(NC(=O)CCC2CCN(C(=O)CCOc3ccccc3)CC2)c1', 'Or47a/Or83b (Drosophila melanogaster, UniProt P81921+Q9VNB5)', '51 to 74%'),
  ('CN(C)c1ccc(C(=O)N2CCOC(COCc3ccccc3F)C2)cc1 (stereo not drawn)', 'Or47a/Or83b (Drosophila melanogaster, UniProt P81921+Q9VNB5)', '26 to 50%'),
  ('O=C(c1ccco1)N(Cc1nccn1Cc1ccccc1Cl)CC1CC1', 'Or47a/Or83b (Drosophila melanogaster, UniProt P81921+Q9VNB5)', '> 75%'),
  ('CCN(CC)c1onc(-c2ccccc2)c1CN(CC1CCCO1)C(=O)c1ccco1 (stereo not drawn)', 'Or47a/Or83b (Drosophila melanogaster, UniProt P81921+Q9VNB5)', '26 to 50%'),
  ('CCN(CC)c1onc(-c2ccccc2)c1CN(CC1CCCO1)C(=O)c1ccc2c(c1)OCO2 (stereo not drawn)', 'Or47a/Or83b (Drosophila melanogaster, UniProt P81921+Q9VNB5)', '51 to 74%'),
  ('O=C(C1CCC1)N(Cc1ccco1)Cc1nccn1Cc1ccccc1Cl', 'Or47a/Or83b (Drosophila melanogaster, UniProt P81921+Q9VNB5)', '26 to 50%'),
  ('O=C(Cc1cccc(F)c1)N1CCOC(COCc2c(Cl)cccc2Cl)C1 (stereo not drawn)', 'Or47a/Or83b (Drosophila melanogaster, UniProt P81921+Q9VNB5)', '26 to 50%'),
  ('COc1ccccc1N1CCN(C(=O)c2cc3n(n2)CCN(Cc2c(F)cccc2Cl)C3=O)CC1', 'Or47a/Or83b (Drosophila melanogaster, UniProt P81921+Q9VNB5)', '51 to 74%'),
  ('C=CCN(Cc1nccn1Cc1ccccc1C)C(=O)CC(C)C', 'Or47a/Or83b (Drosophila melanogaster, UniProt P81921+Q9VNB5)', '51 to 74%'),
  ('Cc1cccc(Cn2ccnc2CN(C(=O)c2ccccc2F)C2CCCCC2)c1', 'Or47a/Or83b (Drosophila melanogaster, UniProt P81921+Q9VNB5)', '26 to 50%'),
  ('COc1cccc(-c2nnc(SCCCC(=O)N3CCN(C(=O)CC(C)(C)C)C(C)C3)n2-c2ccc(C)cc2)c1 (stereo not drawn)', 'Or47a/Or83b (Drosophila melanogaster, UniProt P81921+Q9VNB5)', '26 to 50%'),
  ('C=CCOc1cccc(C(=O)N2CCCC(C(=O)c3ccccc3OC)C2)c1 (stereo not drawn)', 'Or47a/Or83b (Drosophila melanogaster, UniProt P81921+Q9VNB5)', '51 to 74%'),
  ('CC(=O)OCC(=O)NCC1Cc2cc(Oc3ccccc3)ccc2O1 (stereo not drawn)', 'Or47a/Or83b (Drosophila melanogaster, UniProt P81921+Q9VNB5)', '51 to 74%'),
  ('COc1ccc(N2CCN(C(=O)C3CC=CCC3C(=O)NCCCCc3ccccc3)CC2)cc1 (stereo not drawn)', 'Or47a/Or83b (Drosophila melanogaster, UniProt P81921+Q9VNB5)', '51 to 74%'),
  ('COCCCN(CC(=O)N1CCc2sccc2C1COc1cccc(OC)c1)C(=O)Cc1ccccc1 (stereo not drawn)', 'Or47a/Or83b (Drosophila melanogaster, UniProt P81921+Q9VNB5)', '< 25%'),
  ('CCCCc1nc(CN2CCc3c([nH]c4ccccc34)C2c2cccc(OC)c2OC)c[nH]1 (stereo not drawn)', 'Or47a/Or83b (Drosophila melanogaster, UniProt P81921+Q9VNB5)', '51 to 74%'),
  ('CCOC(=O)C(c1ccc(OC)c(OC)c1)C1C=CC(NC(=O)c2ccc3c(c2)OCO3)C1 (stereo not drawn)', 'Or47a/Or83b (Drosophila melanogaster, UniProt P81921+Q9VNB5)', '26 to 50%'),
  ('CN(Cc1ccccc1)C(=O)CCC1CCN(C(=O)CCOc2ccccc2)CC1', 'Or47a/Or83b (Drosophila melanogaster, UniProt P81921+Q9VNB5)', '> 75%'),
  ('COC(=O)C(Cc1ccccc1)NC(=O)C1CC1(c1ccccc1)c1ccccc1 (stereo not drawn)', 'Or47a/Or83b (Drosophila melanogaster, UniProt P81921+Q9VNB5)', '> 75%'),
  ('CCn1c(C)c(C(=O)CN(CC2CCCO2)C(=O)C2C[C@H]2c2ccccc2)c(C)c1C(=O)OC (stereo partly drawn)', 'Or47a/Or83b (Drosophila melanogaster, UniProt P81921+Q9VNB5)', '26 to 50%'),
  ('C=CCNC(=O)C(NC(=O)c1cccc(C)c1)C1CCN(C(=O)c2cccc(Br)c2)CC1 (stereo not drawn)', 'Or47a/Or83b (Drosophila melanogaster, UniProt P81921+Q9VNB5)', '51 to 74%'),
  ('C=CCN(Cc1nccn1Cc1ccccc1F)C(=O)c1cccc(F)c1', 'Or47a/Or83b (Drosophila melanogaster, UniProt P81921+Q9VNB5)', '26 to 50%'),
  ('COCCN(Cc1c(-c2ccccc2)noc1N(C)C1CCCCC1)C(=O)c1ccccc1OC', 'Or47a/Or83b (Drosophila melanogaster, UniProt P81921+Q9VNB5)', '51 to 74%'),
  ('O=C(c1cccc(F)c1)N(Cc1c(-c2ccccc2)noc1N1CCCC1)CC1CCCO1 (stereo not drawn)', 'Or47a/Or83b (Drosophila melanogaster, UniProt P81921+Q9VNB5)', '51 to 74%'),
  ('CN(C)c1nc(N(C)C)nc(N(C)C)n1', 'Or47a/Or83b (Drosophila melanogaster, UniProt P81921+Q9VNB5)', '51 to 74%'),
  ('COc1cccc(NC(=O)CCC2CCN(C(=O)CSc3ccccc3)CC2)c1', 'Or47a/Or83b (Drosophila melanogaster, UniProt P81921+Q9VNB5)', '51 to 74%');
